Reported activity change values for the following molecules.
- procedure-summary: qHTS for Inhibitors of Inflammasome Signaling: IL-1-beta AlphaLISA Primary Screen; also: % is scaled to controls: 0 for no effect and ±100 for the full control effect
- condition-info: THP-1 LPS/ATP IL-1B secretion, 16 h; at 57.5 µM, active compounds read low
Hit rate of the full screen: of about 360,000 compounds, about 17,000 (4.7%) were called active. About 5% were inconclusive and are not listed. The full list was thinned out, with actives kept by preference.
Answer format: numeric, % implied, no suffix.

{"molecule": "COc1ccc(CCNc2cc(C)nc3c(-c4ccc(Cl)cc4)c(C)nn23)cc1OC", "test-value": 15.4}
{"molecule": "CC1=CC(C)(C)Nc2ccc(OC(=O)CN3C(=O)C4CCCCC4C3=O)cc21 (stereo unspecified)", "test-value": -97.6}
{"molecule": "OCCNc1nc(Nc2ccc(Cl)c(Cl)c2)nc2ccccc12", "test-value": -92.5}
{"molecule": "Cn1c(=O)[nH]c(=O)c2c1nc(NCCCn1ccnc1)n2Cc1cccc(Br)c1", "test-value": 58.2}
{"molecule": "CC(=O)Nc1c2c(nn1-c1ccc(C)cc1C)CS(=O)C2 (stereo unspecified)", "test-value": 13.7}
{"molecule": "CCOC(=O)C(Cc1ccc(N)cc1)N1C(=O)c2ccccc2C1=O (stereo unspecified)", "test-value": 12.1}
{"molecule": "COc1ccc(C(=O)COC(=O)CN2C(=O)C3CC=CCC3C2=O)c(OC)c1 (stereo unspecified)", "test-value": -15.2}
{"molecule": "CCCCNCCS(=O)(=O)NCc1ccccc1", "test-value": 24.2}
{"molecule": "Cc1cc2nc(-c3ccc(Cl)cc3)c(Cc3cccc(F)c3)n2c(C)c1Br", "test-value": 0}
{"molecule": "Cc1ccc(Nc2nc(N)nc(CN3CCN(Cc4ccccc4)CC3)n2)cc1Cl", "test-value": 0}

Turning now to a further molecule:
Report activity change, nothing else, for this molecule: O=C1NC[C@H](CCCCN2CCN(CCc3ccccc3)C(=O)C2=O)N(CC2CCCCC2)C1=O
-14.3
